Target: human polyclonal IgG (human)
Assay: batch incubation of peptide-Toyopearl resin with human IgG, Bradford of unbound IgG; mg IgG bound relative to MWRGWQ
Non-standard residues stand in square brackets, D forms with d. No end group written: not given here. Cit = NC(=O)NCCC[C@H](N)C(=O)O; Nle = CCCC[C@H](N)C(=O)O
Each item that follows carries a reported % Binding.
measurement label: % Binding (%)

binder="GWRGWQ [GWRGWQ (SEQ ID NO:8)]" recorded_value=78.4
binder="MWRGWN [MWRGWN (SEQ ID NO:22)]" recorded_value=18.9
binder="MWRWQ [MWRWQ (SEQ ID NO:6)]" recorded_value=91.5
binder="MWRGFQ [MWRGFQ (SEQ ID NO:7)]" recorded_value=89.2
binder="MFRGWQ [MFRGWQ (SEQ ID NO:21)]" recorded_value=56.8
binder="MWRGGQ [MWRGGQ (SEQ ID NO:26)]" recorded_value=26
binder="MW[Cit]GWQ [MW(Cit)GWQ (SEQ ID NO:25)]" recorded_value=0.48
binder="[Nle]WRGWQ [(NorL)WRGWQ (SEQ ID NO:23)]" recorded_value=74.7
binder="MWRAWQ [MWRAWQ (SEQ ID NO:5)]" recorded_value=97
